- TARGET: T1, exon 6 peptide (ASSLRNDSSSSNRKAKNPPGDS), coated on ELISA plate (not fully specified)
- T1 construct: No biotin is mentioned for the ELISA coat; also called a peptide of SCF248
- T1 peptide: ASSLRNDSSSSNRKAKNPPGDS
- ASSAY METHOD TEXT: direct ELISA on coated peptide, IgG4, read at 450 nm
QUANTITY: absorbance at 5 ng/mL antibody (absorbance)
One number for each entry, in absorbance.

Request: For the binder shown here, B104P mutant expressed as full length IgG4 antibody (antibody, V domains shown, Full length IgG4) VH: QVQLVQSGAELKKPGSSVKISCKSSGYAFSSQWMNWVKQRPGQGLEWIGQIYPDDGDTHYNDKFKGKATLTADKSTSTAYMELSSLTSEDSAVYFCSSSNWVGSYWGQGTLVTVSS VL: DVVMTQSPLSLPVTLGQPASISCKSSQSLLEADGNTYLNWLQQRPGQSPRRLIYLVDRLDSGVPDRFSGSGSGTDFTLKISRVEAEDVGVYYCWQGTDLPQTFGGGTKVEIK , give the reported absorbance at 5 ng/mL antibody.
Result: 1.13

Request: // absorbance at 5 ng/mL antibody lookup, key: B124P mutant expressed as full length IgG4 antibody (antibody, V domains shown, Full length IgG4) VH: QVQLVQSGAELKKPGSSVKISCKSSGYAFSSNWMNWVKQRPGQGLEWIGQIYPEDGDTHYNDKFKGKATLTADKSTSTAYMELSSLTSEDSAVYFCSSSNWVGSYWGQGTLVTVSS VL: DVVMTQSPLSLPVTLGQPASISCKSSQSLLEQDGNTYLNWLQQRPGQSPRRLIYLVDRLDSGVPDRFSGSGSGTDFTLKISRVEAEDVGVYYCWQGTDLPQTFGGGTKVEIK
Result: 1.32

Request: Quick check: absorbance at 5 ng/mL antibody of F54P mutant expressed as full length IgG4 antibody (antibody, V domains shown, Full length IgG4) VH: QVQLVQSGAELKKPGSSVKISCKSSGYAFSSQWMNWVKQRPGQGLEWIGQIYPEDGDTHMNGKFKTKATLTADKSTSTAYMELSSLTSEDSAVYFCSSSNWVGSYWGQGTLVTVSS VL: DVVMTQSPLSLPVTLGQPASISCKSSQSLLEEDGNTYLNWLQQRPGQSPRRLIYLVDRLDSGVPDRFSGSGSGTDFTLKISRVEAEDVGVYYCWQGTDLPQTFGGGTKVEIK ?
Result: 1.35

Request: Fill in the blank: the reported absorbance at 5 ng/mL antibody of A104P mutant expressed as full length IgG4 antibody (antibody, V domains shown, Full length IgG4) VH: QVQLVQSGAELKKPGSSVKISCKSSGYAFSSQWMNWVKQRPGQGLEWIGQIYPEDGDTHYNGKFKGKATLTADKSTSTAYMELSSLTSEDSAVYFCSSSNWVGSYWGQGTLVTVSS VL: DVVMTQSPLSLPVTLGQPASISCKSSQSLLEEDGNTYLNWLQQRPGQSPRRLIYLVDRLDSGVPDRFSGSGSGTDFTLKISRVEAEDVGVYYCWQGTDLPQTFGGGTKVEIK is ____.
Result: 1.57

Would you kindly look at the next entry?
Request: For the binder shown here, B114P mutant expressed as full length IgG4 antibody (antibody, V domains shown, Full length IgG4) VH: QVQLVQSGAELKKPGSSVKISCKSSGYAFSSQWMNWVKQRPGQGLEWIGQIYPEDGDTHMNGKFKGKATLTADKSTSTAYMELSSLTSEDSAVYFCSSSNWDGSYWGQGTLVTVSS VL: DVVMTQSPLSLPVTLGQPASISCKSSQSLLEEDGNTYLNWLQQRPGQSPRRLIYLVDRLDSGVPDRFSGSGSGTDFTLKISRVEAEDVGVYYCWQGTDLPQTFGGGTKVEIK , give the reported absorbance at 5 ng/mL antibody.
Result: 1.11
